B1: library; a variant is named by its letters at N, in order (parent)
chain: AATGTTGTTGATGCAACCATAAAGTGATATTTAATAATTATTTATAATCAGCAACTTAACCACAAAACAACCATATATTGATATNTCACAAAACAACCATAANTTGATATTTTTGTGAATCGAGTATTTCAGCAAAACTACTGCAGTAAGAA

- Variants of: B1
- experimentNotes: relative integration efficiency (T-RL orientation) vs wild-type transposon end (log2 (normalized fold change)); transposon end mutated: left end; higher = more efficient transposition
- assaySetup: with VchCAST RNA-guided transposition machinery (E. coli BL21(DE3) host, lacZ target)
readoutKind: relative integration efficiency (log2)

| variantName | readoutKind | quantitativeResult |
| --- | --- | --- |
| CG A101T | relative integration efficiency (log2) | -0.599 |
| CG T42A T43A | relative integration efficiency (log2) | -0.0273 |
| TG G24A T30A A70C T76A T86G | relative integration efficiency (log2) | 0.692 |
| CG G13C C14G | relative integration efficiency (log2) | -0.232 |
